# study_system: PDE10 (UniProt Q8CA95)
# experiment: PDE10 enzyme inhibition, IMAP TR-FRET assay (Example A: MPDE10A7 Enzyme Activity and Inhibition)
# Assay type: biochemical
# test_conditions: Table 1A, Examples 11-56; read-out: PDE10 IC50
# Procedure: MPDE10A7 Enzyme Activity and Inhibition Enzyme Activity. An IMAP TR-FRET assay was used to analyze the enzyme activity (Molecular Devices Corp., Sunnyvale Calif.). […] The plates were read on an Envision (Perkin Elmer, Waltham, Mass.) for time resolved fluorescence resonance energy transfer. The data were analyzed with GraphPad Prism (La Jolla, Calif.). […] The data were analyzed with GraphPad Prism (La Jolla, Calif.).
pIC50: −log10 of the molar value.
recorded_endpoint: pIC50

Use these answered entries as a reference point.
# compound, recorded_endpoint, experimental_value
records = [
    ("N#Cc1ccc2[nH]c(C3CCN(c4nccnc4-c4ccccc4)C3)nc2c1 (stereo not shown)", "pIC50", 6.34),
    ("Clc1ccc2[nH]c(C3CN(c4nccnc4N4CCOCC4)C3)nc2c1", "pIC50", 6.87),
    ("Cc1ccc(-c2nccnc2N2CC(c3nc4cc(Cl)ccc4[nH]3)C2)cc1", "pIC50", 6.87),
    ("Clc1ccc2[nH]c(C3CN(c4nccnc4C4=CCOCC4)C3)nc2c1", "pIC50", 6.35),
]

[a] c1ccc(-c2nccnc2N2CCC(c3nc4cc(C5CC5)ccc4[nH]3)CC2)cc1
[b] Cc1ccc2[nH]c(C3CN(c4nccnc4Cl)C3)nc2c1
Query: In terms of reported pIC50, does a or b have the smaller number? Indicate which entry you chose by stating its label.
Reply: b
(b: 6.34, a: 6.56)
